- target_system: Tropomyosin Receptor Kinase A (TRKA, NTRK1 enzyme) (Homo sapiens (Human), UniProt P04629)
- Sequence (P04629 33-796): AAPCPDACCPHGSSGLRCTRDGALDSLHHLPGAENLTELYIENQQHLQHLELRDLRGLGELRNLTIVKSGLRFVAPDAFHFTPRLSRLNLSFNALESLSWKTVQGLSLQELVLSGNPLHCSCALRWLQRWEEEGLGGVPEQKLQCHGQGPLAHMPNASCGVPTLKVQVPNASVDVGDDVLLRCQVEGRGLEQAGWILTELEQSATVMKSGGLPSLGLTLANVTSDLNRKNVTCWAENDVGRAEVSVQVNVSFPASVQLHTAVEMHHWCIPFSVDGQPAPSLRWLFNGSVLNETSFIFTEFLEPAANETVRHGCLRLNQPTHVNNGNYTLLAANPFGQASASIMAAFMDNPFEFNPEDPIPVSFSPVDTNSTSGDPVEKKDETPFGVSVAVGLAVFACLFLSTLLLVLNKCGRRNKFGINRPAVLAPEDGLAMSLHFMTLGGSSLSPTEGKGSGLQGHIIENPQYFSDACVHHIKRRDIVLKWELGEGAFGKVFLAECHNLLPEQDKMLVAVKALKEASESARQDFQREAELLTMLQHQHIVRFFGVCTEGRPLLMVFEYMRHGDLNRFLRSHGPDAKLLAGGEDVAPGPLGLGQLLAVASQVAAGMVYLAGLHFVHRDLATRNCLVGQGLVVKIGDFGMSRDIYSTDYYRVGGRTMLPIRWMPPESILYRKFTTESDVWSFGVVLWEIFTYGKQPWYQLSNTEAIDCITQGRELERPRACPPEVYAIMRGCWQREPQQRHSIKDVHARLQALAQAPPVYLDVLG
- measurement_description: TRKA (NTRK1) ThermoFisher Z'-LYTE assay
- Type: biochemical
- measurement_conditions: test compound 1 uM, ATP 1 mM; arithmetic mean of count n; read-out: TRKA % inhibition
observed_property: inhibition at 1 µM

INSERT INTO assay_data (chemical_structure, target_system, observed_property, observed) VALUES
  ('CC(=O)N(C)c1cc2nc(-c3n[nH]c4c3C[C@@H]3C[C@]3(C)C4)[nH]c2cc1C', 'Tropomyosin Receptor Kinase A (TRKA, NTRK1 enzyme) (Homo sapiens (Human), UniProt P04629)', 'inhibition at 1 µM', '100%'),
  ('Cc1cc2[nH]c(-c3n[nH]c4c3C[C@@H]3C[C@]3(C)C4)nc2cc1N(C)C(=O)CN1CCCC1=O', 'Tropomyosin Receptor Kinase A (TRKA, NTRK1 enzyme) (Homo sapiens (Human), UniProt P04629)', 'inhibition at 1 µM', '98%'),
  ('Cc1cc2[nH]c(-c3n[nH]c4c3C[C@@H]3C[C@]3(C)C4)nc2cc1N(C)C(=O)[C@@H]1CCOC1', 'Tropomyosin Receptor Kinase A (TRKA, NTRK1 enzyme) (Homo sapiens (Human), UniProt P04629)', 'inhibition at 1 µM', '97%');
